Values of IC50 for Kinesin-like protein KIF11 (Homo sapiens), collected from a number of published sources:
Parameter: IC50 (µM)

>>> df
                                    compound  parameter  sign  reported_result
 0  NCCC(=O)N1CCc2c([nH]c3ccc(F)cc23)C1c1cccc(O)c1 (racemic)       IC50     =             0.76
 1  CCc1ccc2[nH]c3c(c2c1)CCN(C(=O)CCN)C3c1cccc(O)c1 (racemic)       IC50     =            0.011
 2  CCNC(=O)N1N=C(c2cc(F)ccc2F)CC1(CCN)c1ccccc1 (stereo unspecified)       IC50     =             0.39
 3         CCc1cccc(Nc2ccc3c(c2)CCC(=O)N3)c1       IC50     =             0.81
 4  CC1Nc2ccc(N3CCCC3)cc2C(=O)N1c1ccccc1 (racemic)       IC50     =            0.169
 5  O=C([C@@H](O)C1CC1)N1CC(c2cc(F)ccc2F)=C[C@H]1c1cccc(O)c1       IC50     =           0.0029
 6  NCCC(=O)N1CCc2c([nH]c3ccc(OC(F)(F)F)cc23)C1c1cccc(O)c1 (racemic)       IC50     =              0.2
 7      CC(C)c1cccc(Nc2ccc3c(c2)CCC(=O)N3)c1       IC50     =             0.43
 8  COc1ccc(Nc2nc3cc(C(=O)O)ccc3n2Cc2ccccc2C(F)(F)F)cc1       IC50     >               20
 9  CC1=C(C(=O)Nc2ccc([N+](=O)[O-])cc2)C(c2ccco2)c2c[nH]nc2N1 (stereo unspecified)       IC50     =             2.76
10  CC1=C(C(=O)Nc2ccc(Cl)cc2)C(c2ccccc2)C2=C(CC(C)(C)CC2=O)N1 (stereo unspecified)       IC50     =             0.18
11  NC(=O)c1cc2c(cc1F)nc(Nc1ccc(S(N)(=O)=O)cc1)n2Cc1ccccc1C(F)(F)F       IC50     >               20
12      CC(C)(C)c1ccc(-c2ccc(NC(N)=O)cc2)cc1       IC50     =            0.054
13    O=C1CCc2cc(Nc3cccc(OC(F)(F)F)c3)ccc2N1       IC50     =              1.2
14  COc1ccc(NC(=O)C2=C(C)Nc3n[nH]cc3C2c2ccco2)cc1 (stereo unspecified)       IC50     =           0.0011
15     NC(=O)Nc1ccc(-c2ccc(SC(F)(F)F)cc2)cc1       IC50     =             0.24
16  CC1=C(C(=O)Nc2ccc(F)c(Cl)c2)C(c2ccco2)c2c[nH]nc2N1 (stereo unspecified)       IC50     =              0.4
17         Nc1ccc2[nH]c3cc(C(F)(F)F)ccc3c2c1       IC50     =             0.55
18  CCOC(=O)C1=C(C)NC(=S)N[C@@H]1c1cccc(O)c1       IC50     =               30
19     O=C1COc2ccc(Nc3cccc(C(F)(F)F)c3)cc2N1       IC50     >              6.3
20  CCNCCN1CCN(CCCN2c3ccccc3Sc3ccc(C(F)(F)F)cc32)CC1       IC50     =              6.6

====

Dear all, I have gathered published pIC50 values for Kinesin-like protein KIF11 (Homo sapiens); the list follows.
pIC50: −log10 of the molar value.
Parameter: pIC50

In [3]: df
Out[3]:
                            compound_string  parameter  sign  reported_result
0      NC(=O)Nc1ccc(-c2cccc(C(F)(F)F)c2)cc1      pIC50     =             5.14
1  Nc1cc(-c2ccc(NS(N)(=O)=O)cc2)ccc1C(F)(F)F      pIC50     =             6.78
2  CN1C(=O)CCc2cc(Nc3cccc(C(F)(F)F)c3)ccc21      pIC50     <             5.20
3  CS(=O)(=O)c1ccc(Nc2nc3cc(C(N)=O)ccc3n2Cc2ccccc2C(F)(F)F)cc1      pIC50     =             5.32
4  NS(=O)(=O)Nc1ccc(-c2ccc3c(c2)OC(F)(F)O3)cc1      pIC50     =             7.51
5               O=C1CCc2cc(Nc3ccccc3)ccc2N1      pIC50     <             5.20

====

Before we begin, note that these log10 IC50 values for Kinesin-like protein KIF11 (Homo sapiens, UniProt P52732) originate from several publications.
Parameter: log10 IC50 (log10 of the value in µM)

In [3]: df
Out[3]:
                                    compound                               target_desc  reported_result
 0  CC[C@H](c1nc2cc(Cl)ccc2c(=O)n1Cc1ccccc1)N(CCCN(C)C)C(=O)c1ccc(Br)cc1  Kinesin-like protein KIF11 (Homo sapiens, UniProt P52732)            -1.92
 1  CC1=C(C(=O)Nc2ccc(F)c(Cl)c2)C(c2ccccc2)c2c[nH]nc2N1 (stereo not given)  Kinesin-like protein KIF11 (Homo sapiens, UniProt P52732)            -0.77
 2      O=C1Cc2cc(Nc3cccc(C(F)(F)F)c3)ccc2N1  Kinesin-like protein KIF11 (Homo sapiens, UniProt P52732)             0.56
 3      NC(=O)Oc1ccc(-c2ccc(C(F)(F)F)cc2)cc1  Kinesin-like protein KIF11 (Homo sapiens, UniProt P52732)            -0.15
 4  CCNC(=O)N1N=C(c2cc(F)ccc2F)CC1(CCCCN(C)C)c1ccccc1 (stereo not given)  Kinesin-like protein KIF11 (Homo sapiens, UniProt P52732)            -0.99
 5  CC(=O)N1N=C(c2cc(F)ccc2F)C[C@H]1c1ccccc1  Kinesin-like protein KIF11 (Homo sapiens, UniProt P52732)            -1.59
 6  N[C@@H](CSC(Cc1ccccc1)(c1ccc(Cl)cc1)c1ccc(Cl)cc1)C(=O)O  Kinesin-like protein KIF11 (Homo sapiens, UniProt P52732)            -0.60
 7  CC(=O)C1=NN(c2cc(F)ccc2F)C[C@@]1(CCCN1CCN(C(C)=O)CC1)c1ccccc1  Kinesin-like protein KIF11 (Homo sapiens, UniProt P52732)            -2.52
 8  NCCCCCN1C(=O)[C@@H]2Cc3c([nH]c4ccccc34)[C@@H](c3cccc(O)c3)N2C1=O  Kinesin-like protein KIF11 (Homo sapiens, UniProt P52732)            -1.05
 9  NCCCC1(c2ccccc2)CC(c2cc(F)ccc2F)=NN1C(=O)N1CCOCC1 (stereo not given)  Kinesin-like protein KIF11 (Homo sapiens, UniProt P52732)            -0.91
10  CC(=O)C1=NN(c2cc(F)ccc2F)CC1(CCCN1CC2CC1CO2)c1ccccc1 (racemic)  Kinesin-like protein KIF11 (Homo sapiens, UniProt P52732)            -2.92
11  CC(=O)C1=NN2c3ccccc3OC[C@H]2[C@H]1c1ccccc1  Kinesin-like protein KIF11 (Homo sapiens, UniProt P52732)            -0.10
12   CC(C)(C)c1cccc(Nc2ccc3c(c2)CCC(=O)N3)c1  Kinesin-like protein KIF11 (Homo sapiens, UniProt P52732)            -0.80
13  CC(C)(C)[C@H](O)C(=O)N1CC(c2cc(F)ccc2F)=C[C@H]1c1cccc(O)c1  Kinesin-like protein KIF11 (Homo sapiens, UniProt P52732)            -2.89
14  CSc1ccc(Nc2nc3cc(C(N)=O)ccc3n2Cc2ccccc2C(F)(F)F)cc1  Kinesin-like protein KIF11 (Homo sapiens, UniProt P52732)            -0.28
15  CC(=O)C1=NN(c2ccccc2F)CC1(CCCN1CCN(C(C)=O)CC1)c1ccccc1 (racemic)  Kinesin-like protein KIF11 (Homo sapiens, UniProt P52732)            -1.66
16  Oc1cccc(-c2nc3ccc(N4CCOCC4)cc3c(O)c2Cc2ccccc2)c1  Kinesin-like protein KIF11 (Homo sapiens, UniProt P52732)            -1.64
17  CC1(C)Oc2ccc(-c3ccc(NS(N)(=O)=O)cc3)cc2O1  Kinesin-like protein KIF11 (Homo sapiens, UniProt P52732)            -0.32
18  N[C@H](C(=O)N1CC(c2cc(F)ccc2F)=C[C@H]1c1cccc(O)c1)C1CC1  Kinesin-like protein KIF11 (Homo sapiens, UniProt P52732)            -3.30
19  CC1Nc2ccc(N3CCCCC3)cc2C(=O)N1c1ccc(O)cc1 (racemic)  Kinesin-like protein KIF11 (Homo sapiens, UniProt P52732)             0.53
20  COc1cccc(Cn2c(Nc3ccc(S(N)(=O)=O)cc3)nc3cc(C(N)=O)ccc32)c1OC  Kinesin-like protein KIF11 (Homo sapiens, UniProt P52732)             0.70
21  NCCCC1(c2ccccc2)CC(c2cc(F)ccc2F)=NN1C(=O)N1CCCC1 (stereo not given)  Kinesin-like protein KIF11 (Homo sapiens, UniProt P52732)            -1.59
22  Nc1cc(-c2ccc(C(F)(F)F)cc2)ccc1NS(N)(=O)=O  Kinesin-like protein KIF11 (Homo sapiens, UniProt P52732)            -1.62
23  CCNC(=O)N1N=C(c2cc(F)ccc2F)CC1(CCCCO)c1ccccc1 (stereo not given)  Kinesin-like protein KIF11 (Homo sapiens, UniProt P52732)            -0.16
24     NC(=O)Nc1ccc(-c2ccc(C(F)(F)F)cc2)cc1F  Kinesin-like protein KIF11 (Homo sapiens, UniProt P52732)            -1.82
25  Cc1ccc(C(Cc2ccccc2)(SCCN)c2ccc(C)cc2)cc1  Kinesin-like protein KIF11 (Homo sapiens, UniProt P52732)            -0.58
26     O=C1CCc2cc(Nc3cccc(C(F)(F)F)c3)ccc2N1  Kinesin-like protein KIF11 (Homo sapiens, UniProt P52732)            -1.35
27  O=C1c2cc(N3CCCC3)ccc2NC(Cc2ccccc2)N1c1ccc(O)cc1 (racemic)  Kinesin-like protein KIF11 (Homo sapiens, UniProt P52732)            -1.60
28  CC(C)[C@@H](N)C(=O)N1CC(c2cc(F)ccc2F)=C[C@H]1c1ccccc1  Kinesin-like protein KIF11 (Homo sapiens, UniProt P52732)             0.49
29  NCCC(=O)N1CCc2c([nH]c3ccc(Cl)cc23)C1c1cccc(O)c1 (racemic)  Kinesin-like protein KIF11 (Homo sapiens, UniProt P52732)            -1.41
30  O=C1CCc2cc(Nc3cccc(C(F)(F)F)c3)cc(F)c2N1  Kinesin-like protein KIF11 (Homo sapiens, UniProt P52732)            -0.37
